System: F380Y/beta1
Experiment: BK channel mutant inhibitors and activators – cell-based, U2OS BacMam, thallium flux, beta subunits, selectivity assay, profiling panel (AID 1259406);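 note: initial slope of Thallos dye fluorescence rise after thallium is added; log ratio against the mean of 0.3% DMSO vehicle wells on the same plate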
Details: U2OS BacMam BK variants, at 30 µM
Reported Endpoint: log fold change Tl+ flux
Reply with just the number.

Cc1c(O)cccc1C(=O)N[C@@H](CSc1ccccc1)[C@H](O)CN1C[C@H]2CCCC[C@H]2C[C@H]1C(=O)NC(C)(C)C    0.0513
CC(C)c1ccc2oc3nc(N)c(C(=O)O)cc3c(=O)c2c1    0.0494
CCCN[C@H]1CCc2nc(N)sc2C1    0.0248

Briefly, log fold change Tl+ flux measured for `CC1(C)O[C@@H]2C[C@H]3[C@@H]4C[C@H](F)C5=CC(=O)C=C[C@]5(C)[C@@]4(F)[C@@H](O)C[C@]3(C)[C@]2(C(=O)CO)O1` : 0.211

Briefly, log fold change Tl+ flux measured for `N#Cc1ccc(C(c2ccc(C#N)cc2)n2cncn2)cc1` : 0.0204

Briefly, log fold change Tl+ flux measured for `Cc1[nH]cnc1CN1CCc2c(c3ccccc3n2C)C1=O` : 0.0327

Briefly, log fold change Tl+ flux measured for COc1ccc(C2CNC(=O)C2)cc1OC1CCCC1 (configuration not stated) : -0.0167

Briefly, log fold change Tl+ flux measured for `CNS(=O)(=O)Cc1ccc2[nH]cc(CCN(C)C)c2c1` : -0.000461

Briefly, log fold change Tl+ flux measured for CC(Cc1ccccc1)(NC(=O)CN)c1ccccc1 (configuration not stated) : 0.0342

* * *

Here, each record is paired with measured nuclear beta-catenin stimulation data.
Assay: Wnt pathway potentiators raising nuclear beta-catenin – imaging, WNT3A-conditioned medium, mouse C2C12, NPC library, primary screen (AID 1117326); note: reference of the scale not given here
Settings: at 10 µM, hits give high values
// units = %; emit number, no label

Briefly, nuclear beta-catenin stimulation measured for `C[C@]12CC[C@@H]3c4ccc(O)cc4CC[C@H]3[C@@H]1C[C@@H](O)[C@@H]2O` : 4.3

* * *

Here, each record is paired with measured inhibition of viability data.
Assay: HCT116 colon cancer cell growth inhibition, primary screen, CellTiter-Glo luminescence, NPC library (AID 1117342)
Details: at 20 µM (top of the series)
// units = %; emit number, no label

Briefly, inhibition of viability measured for `CC(=O)OC/C=C(C)/C=C/C=C(C)/C=C/C1=C(C)CCCC1(C)C` : 2.7

* * *

Here, each record is paired with measured viability decrease (inhibition) data.
Experiment: NPC library primary testing for decreased DLD-1 cell viability via CellTiter-Glo (AID 1117346)
Details: DLD-1 viability, CellTiter-Glo luminescence; at 20 µM (top of the series)
// units = %; emit number, no label

Look over these answered cases.
C[N+](C)(C)CCCCCC[N+](C)(C)C    5.4
CN(C)CCCN1c2ccccc2Sc2ccccc21    14.3
CCN(CC)CCNC(=O)COc1ccc(OC)cc1    -6.15

Briefly, viability decrease (inhibition) measured for `CCOc1ccc2nc3cc(N)ccc3c(N)c2c1` : 47.2

* * *

Here, each record is paired with measured fold change data.
Assay: viability loss with induced miR-34 in A549 – imaging, A549 dox-inducible miR-34, nuclei and caspase counts, primary screen (AID 1347080)
Details: A549 miR-34 inducible, Hoechst nuclei count, 48 h; hits give low values; cell number ratio, induced over uninduced
Reply with just the number.

CC[N+](C)(C)Cc1ccccc1Br    0.896
O=c1cc(CO)occ1O    0.923
C[C@@H]1CN(c2c(F)c(N)c3c(=O)c(C(=O)O)cn(C4CC4)c3c2F)C[C@H](C)N1    0.881
Cc1c(NC(C)C)c(=O)n(-c2ccccc2)n1C    0.876
CCCCCCc1ccc(O)cc1O    0.901
Oc1cccc(O)c1    0.918
Cc1c(NC(=O)c2cccnc2)c(=O)n(-c2ccccc2)n1C    0.892
CC(=O)OCC1=C(C(=O)O)N2C(=O)[C@@H](NC(=O)CSc3ccncc3)[C@H]2SC1    0.915
O=c1cc[nH]c(=S)[nH]1    0.917
Nc1nccs1    0.923

Next compound, fold change to be filled in.
Briefly, fold change measured for `NC(=O)c1ccccc1O` : 0.92
